Assay Target: MAP kinase-activated protein kinase 2 (Homo sapiens, UniProt P49137)
Sequence (P49137 whole entry): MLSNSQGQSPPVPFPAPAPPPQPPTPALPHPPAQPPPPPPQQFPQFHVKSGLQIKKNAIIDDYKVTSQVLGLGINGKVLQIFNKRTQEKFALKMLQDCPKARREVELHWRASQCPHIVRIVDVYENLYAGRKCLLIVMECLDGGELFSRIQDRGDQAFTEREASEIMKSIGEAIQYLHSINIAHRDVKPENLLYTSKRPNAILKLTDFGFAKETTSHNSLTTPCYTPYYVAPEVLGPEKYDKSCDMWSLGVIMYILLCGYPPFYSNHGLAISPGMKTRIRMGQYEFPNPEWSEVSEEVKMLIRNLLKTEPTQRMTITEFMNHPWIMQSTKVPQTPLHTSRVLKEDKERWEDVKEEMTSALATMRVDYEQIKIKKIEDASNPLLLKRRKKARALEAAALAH
Experiment Summary: Inhibition of MAPKAPK2 (unknown origin)
pIC50: −log10 of the molar value.
Property Measured: pIC50

Q) # lookup: pIC50 of COC[C@@H](C)Nc1cc(NC(=O)N2CCCc3cc(CN4CCCCOC4=O)c(C=O)nc32)ncc1C#N
A) < 5.00

###

Property Measured: IC50

Q) Request body: readout IC50, system Insulin-like growth factor 1 receptor (Homo sapiens, UniProt P08069), query COC[C@@H](C)Nc1cc(NC(=O)N2CCCc3cc(CN4CCCCOC4=O)c(C=O)nc32)ncc1C#N . Return the value.
A) > 10 µM

###

Experiment Summary: Toxicity in male BALB/c mouse at 200 to 2000 mg/kg, ig administered as single dose measured after 14 days
Assay type: organism-based
Measurement Conditions: in vivo, po
Property Measured: NOAEL at 336 h (mg/kg/day)
Number only, in mg/kg/day; omit the unit.

Q) Query: NOAEL at 336 h; subject: COC[C@@H](C)Nc1cc(NC(=O)N2CCCc3cc(CN4CCCCOC4=O)c(C=O)nc32)ncc1C#N
A) 2000

###

Assay Target: Ephrin type-A receptor 1 (Homo sapiens)
Sequence (P21709 whole entry): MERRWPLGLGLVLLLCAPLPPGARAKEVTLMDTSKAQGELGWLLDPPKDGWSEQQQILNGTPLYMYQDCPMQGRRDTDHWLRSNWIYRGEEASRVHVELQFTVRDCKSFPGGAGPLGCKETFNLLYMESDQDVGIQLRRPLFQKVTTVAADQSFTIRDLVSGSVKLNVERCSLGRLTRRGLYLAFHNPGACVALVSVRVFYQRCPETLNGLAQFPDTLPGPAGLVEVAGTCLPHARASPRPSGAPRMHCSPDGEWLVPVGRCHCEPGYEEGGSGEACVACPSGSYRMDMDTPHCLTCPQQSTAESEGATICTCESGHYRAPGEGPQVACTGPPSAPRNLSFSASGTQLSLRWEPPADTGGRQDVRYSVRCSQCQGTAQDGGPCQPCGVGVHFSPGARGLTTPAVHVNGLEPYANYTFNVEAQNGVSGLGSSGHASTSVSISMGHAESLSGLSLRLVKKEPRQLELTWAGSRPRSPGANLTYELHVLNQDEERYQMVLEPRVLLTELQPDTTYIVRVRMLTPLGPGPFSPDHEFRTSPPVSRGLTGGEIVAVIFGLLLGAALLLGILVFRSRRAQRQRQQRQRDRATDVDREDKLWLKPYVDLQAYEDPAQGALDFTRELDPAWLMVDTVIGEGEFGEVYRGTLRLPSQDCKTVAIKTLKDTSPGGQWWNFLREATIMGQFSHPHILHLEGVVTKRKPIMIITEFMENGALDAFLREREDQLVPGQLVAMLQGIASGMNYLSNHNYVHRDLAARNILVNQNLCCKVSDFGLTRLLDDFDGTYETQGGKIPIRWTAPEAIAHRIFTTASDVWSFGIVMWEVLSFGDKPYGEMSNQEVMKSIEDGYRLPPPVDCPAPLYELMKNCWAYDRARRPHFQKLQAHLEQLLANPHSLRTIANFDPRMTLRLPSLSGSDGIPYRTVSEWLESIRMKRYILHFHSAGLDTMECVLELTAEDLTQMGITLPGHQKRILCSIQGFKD
Property Measured: IC50

Q) Any idea what its IC50 is? The compound is COC[C@@H](C)Nc1cc(NC(=O)N2CCCc3cc(CN4CCCCOC4=O)c(C=O)nc32)ncc1C#N
A) > 10 µM

###

Assay Target: Hepatocyte growth factor receptor (Homo sapiens, UniProt P08581)
Sequence (P08581 whole entry): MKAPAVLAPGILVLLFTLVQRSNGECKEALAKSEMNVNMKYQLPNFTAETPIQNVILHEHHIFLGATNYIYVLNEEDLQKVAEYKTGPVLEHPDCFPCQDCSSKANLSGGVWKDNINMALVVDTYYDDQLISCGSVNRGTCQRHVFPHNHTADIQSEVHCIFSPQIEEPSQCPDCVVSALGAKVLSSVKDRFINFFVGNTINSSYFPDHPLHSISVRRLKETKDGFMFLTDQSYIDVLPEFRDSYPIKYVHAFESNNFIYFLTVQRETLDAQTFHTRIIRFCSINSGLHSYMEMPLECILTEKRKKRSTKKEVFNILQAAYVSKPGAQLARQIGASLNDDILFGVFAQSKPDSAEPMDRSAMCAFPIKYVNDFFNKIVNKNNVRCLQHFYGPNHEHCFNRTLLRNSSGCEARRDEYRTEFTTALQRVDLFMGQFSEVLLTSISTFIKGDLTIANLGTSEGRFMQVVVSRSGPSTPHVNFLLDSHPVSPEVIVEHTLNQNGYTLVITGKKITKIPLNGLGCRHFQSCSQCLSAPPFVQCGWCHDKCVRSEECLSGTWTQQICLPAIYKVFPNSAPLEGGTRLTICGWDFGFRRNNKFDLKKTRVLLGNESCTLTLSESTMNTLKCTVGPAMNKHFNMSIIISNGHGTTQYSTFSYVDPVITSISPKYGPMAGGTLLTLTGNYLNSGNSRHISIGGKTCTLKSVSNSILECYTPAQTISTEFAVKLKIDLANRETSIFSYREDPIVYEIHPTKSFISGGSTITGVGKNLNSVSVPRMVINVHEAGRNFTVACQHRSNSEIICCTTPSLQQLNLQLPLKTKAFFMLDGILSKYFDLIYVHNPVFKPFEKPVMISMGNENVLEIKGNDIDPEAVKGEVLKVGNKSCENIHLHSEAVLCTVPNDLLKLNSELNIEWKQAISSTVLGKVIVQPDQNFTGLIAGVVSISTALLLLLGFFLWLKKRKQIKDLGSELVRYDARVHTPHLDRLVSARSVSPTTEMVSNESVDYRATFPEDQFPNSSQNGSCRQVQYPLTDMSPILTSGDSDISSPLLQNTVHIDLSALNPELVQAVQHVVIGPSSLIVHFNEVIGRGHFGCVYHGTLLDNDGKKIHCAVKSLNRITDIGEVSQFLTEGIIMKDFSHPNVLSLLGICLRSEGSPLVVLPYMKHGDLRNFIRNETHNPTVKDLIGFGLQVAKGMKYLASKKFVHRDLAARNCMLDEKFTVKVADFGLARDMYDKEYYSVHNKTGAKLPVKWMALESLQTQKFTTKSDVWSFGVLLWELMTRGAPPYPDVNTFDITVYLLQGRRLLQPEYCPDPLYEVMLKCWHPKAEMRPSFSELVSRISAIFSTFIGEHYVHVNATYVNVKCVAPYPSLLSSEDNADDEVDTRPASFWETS
pIC50: −log10 of the molar value.
Property Measured: pIC50

Q) Given the compound COC[C@@H](C)Nc1cc(NC(=O)N2CCCc3cc(CN4CCCCOC4=O)c(C=O)nc32)ncc1C#N , what is its reported pIC50?
A) < 5.00

###

Assay Target: Fibroblast growth factor receptor 2 (Homo sapiens)
Sequence (P21802 whole entry): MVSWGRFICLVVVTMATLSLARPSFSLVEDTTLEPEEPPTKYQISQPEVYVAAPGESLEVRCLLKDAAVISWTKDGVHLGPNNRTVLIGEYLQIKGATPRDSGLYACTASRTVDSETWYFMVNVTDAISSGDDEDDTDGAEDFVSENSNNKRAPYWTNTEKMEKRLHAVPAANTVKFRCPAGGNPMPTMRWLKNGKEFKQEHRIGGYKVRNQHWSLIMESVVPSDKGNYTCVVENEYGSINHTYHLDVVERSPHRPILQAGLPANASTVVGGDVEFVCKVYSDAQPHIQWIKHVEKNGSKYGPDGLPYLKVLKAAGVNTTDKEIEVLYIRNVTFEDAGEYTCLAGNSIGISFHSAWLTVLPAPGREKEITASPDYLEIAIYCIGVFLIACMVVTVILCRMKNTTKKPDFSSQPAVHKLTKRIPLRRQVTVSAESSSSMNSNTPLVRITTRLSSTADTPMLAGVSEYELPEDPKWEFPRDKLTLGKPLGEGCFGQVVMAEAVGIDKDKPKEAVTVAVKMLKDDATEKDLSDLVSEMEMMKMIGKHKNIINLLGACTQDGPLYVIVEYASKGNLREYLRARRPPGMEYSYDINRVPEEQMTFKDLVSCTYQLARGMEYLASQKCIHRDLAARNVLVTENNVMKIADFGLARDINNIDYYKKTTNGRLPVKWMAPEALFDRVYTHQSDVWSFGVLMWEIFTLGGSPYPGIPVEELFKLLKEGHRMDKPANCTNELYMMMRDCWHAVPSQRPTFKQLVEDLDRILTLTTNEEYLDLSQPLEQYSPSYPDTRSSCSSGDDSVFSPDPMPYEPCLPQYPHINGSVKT
Experiment Summary: Inhibition of FGFR2 (unknown origin)
pIC50: −log10 of the molar value.
Property Measured: pIC50

Q) Form: Entry = COC[C@@H](C)Nc1cc(NC(=O)N2CCCc3cc(CN4CCCCOC4=O)c(C=O)nc32)ncc1C#N | System = Fibroblast growth factor receptor 2 (Homo sapiens) | pIC50 = ____
A) < 5.00

###

Experiment Summary: AUC in Sprague-Dawley rat at 5 mg/kg, ig measured after 5 mins to 24 hrs by LC-MS analysis
Assay type: ADME, organism-based
Parameters: dose 5 mg/kg, time 0.083-24 hr, route […]
Measurement Conditions: in vivo, po
Property Measured: AUC (µg·h/mL)
I only need the number, in µg·h/mL, no unit after it.

Q) // AUC lookup, key: N#Cc1cnc(NC(=O)N2CCCc3cc(CN4CCOCC4=O)c(C=O)nc32)cc1S[C@H]1CCOC1
A) 1.95

Q) Could you tell me which AUC is on file for N#Cc1cnc(NC(=O)N2CCCc3cc(CN4CCOCC4=O)c(C=O)nc32)cc1S[C@@H]1CCOC1 ?
A) 6.78

Q) Quick one: AUC of CO[C@H]1CCN(c2cc(NC(=O)N3CCCc4cc(CN5CCOCC5=O)c(C=O)nc43)ncc2C#N)C1 ?
A) 14.7

Q) For the molecule COC[C@@H](C)Nc1cc(NC(=O)N2CCCc3cc(CN4CCCCOC4=O)c(C=O)nc32)ncc1C#N , what AUC is on record?
A) 9.46

Q) Using the record for COCCNc1cc(NC(=O)N2CCCc3cc(CN4CC[C@H](OC)C4=O)c(C=O)nc32)ncc1C#N , report its AUC.
A) 11.3

Q) Request the reported AUC associated with COCCNc1cc(NC(=O)N2CCCc3cc(CN4CC[C@@H](OC)C4=O)c(C=O)nc32)ncc1C#N
A) 12.3

###

pIC50: −log10 of the molar value.
Property Measured: pIC50

Q) Look up pIC50 with Ephrin type-B receptor 1 (Homo sapiens) for this compound: COC[C@@H](C)Nc1cc(NC(=O)N2CCCc3cc(CN4CCCCOC4=O)c(C=O)nc32)ncc1C#N
Sequence (P54762 whole entry): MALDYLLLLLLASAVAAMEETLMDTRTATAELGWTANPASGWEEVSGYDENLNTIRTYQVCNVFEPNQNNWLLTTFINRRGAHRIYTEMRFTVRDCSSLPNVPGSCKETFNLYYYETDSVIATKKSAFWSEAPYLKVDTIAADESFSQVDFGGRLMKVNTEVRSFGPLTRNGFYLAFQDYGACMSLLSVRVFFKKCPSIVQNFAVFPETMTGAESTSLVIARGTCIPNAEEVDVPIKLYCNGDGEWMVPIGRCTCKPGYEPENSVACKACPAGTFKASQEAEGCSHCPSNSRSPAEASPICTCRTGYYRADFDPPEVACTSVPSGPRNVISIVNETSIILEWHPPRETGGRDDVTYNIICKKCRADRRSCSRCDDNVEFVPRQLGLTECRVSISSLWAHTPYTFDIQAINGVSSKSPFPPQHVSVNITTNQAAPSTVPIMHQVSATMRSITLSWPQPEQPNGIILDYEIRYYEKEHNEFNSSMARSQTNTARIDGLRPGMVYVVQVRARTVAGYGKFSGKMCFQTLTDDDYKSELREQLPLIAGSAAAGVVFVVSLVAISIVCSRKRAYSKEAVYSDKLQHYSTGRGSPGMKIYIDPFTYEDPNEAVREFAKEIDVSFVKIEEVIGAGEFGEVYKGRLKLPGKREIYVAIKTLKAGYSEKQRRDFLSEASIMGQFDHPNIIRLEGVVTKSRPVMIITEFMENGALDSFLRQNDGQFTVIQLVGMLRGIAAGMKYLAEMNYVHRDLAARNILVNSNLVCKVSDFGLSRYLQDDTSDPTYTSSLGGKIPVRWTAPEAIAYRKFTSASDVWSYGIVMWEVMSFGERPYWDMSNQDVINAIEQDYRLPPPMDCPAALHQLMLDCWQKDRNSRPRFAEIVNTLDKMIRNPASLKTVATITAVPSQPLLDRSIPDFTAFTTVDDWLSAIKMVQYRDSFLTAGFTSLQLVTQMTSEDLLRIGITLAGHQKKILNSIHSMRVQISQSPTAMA
A) < 5.00

###

Assay Target: Tyrosine-protein kinase ZAP-70 (Homo sapiens, UniProt P43403)
Sequence (P43403 whole entry): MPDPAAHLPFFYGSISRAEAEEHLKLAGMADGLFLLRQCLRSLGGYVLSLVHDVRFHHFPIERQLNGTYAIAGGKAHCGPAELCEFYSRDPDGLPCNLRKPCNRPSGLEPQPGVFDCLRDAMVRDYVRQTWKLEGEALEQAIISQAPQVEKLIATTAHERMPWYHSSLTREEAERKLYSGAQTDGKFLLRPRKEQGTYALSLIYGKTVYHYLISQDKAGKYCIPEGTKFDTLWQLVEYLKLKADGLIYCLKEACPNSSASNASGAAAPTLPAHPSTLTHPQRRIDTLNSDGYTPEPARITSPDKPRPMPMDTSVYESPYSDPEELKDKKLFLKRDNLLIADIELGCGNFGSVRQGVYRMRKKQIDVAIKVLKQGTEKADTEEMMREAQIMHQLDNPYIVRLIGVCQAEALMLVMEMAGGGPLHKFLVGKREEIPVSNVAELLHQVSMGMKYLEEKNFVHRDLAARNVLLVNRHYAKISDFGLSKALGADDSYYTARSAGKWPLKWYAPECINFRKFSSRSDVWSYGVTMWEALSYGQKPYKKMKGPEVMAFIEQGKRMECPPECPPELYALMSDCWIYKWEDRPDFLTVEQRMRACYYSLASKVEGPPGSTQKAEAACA
Property Measured: IC50

Q) Find the recorded IC50 belonging to COC[C@@H](C)Nc1cc(NC(=O)N2CCCc3cc(CN4CCCCOC4=O)c(C=O)nc32)ncc1C#N and report it.
A) > 10 µM

###

Assay Target: Platelet-derived growth factor receptor beta (Homo sapiens, UniProt P09619)
Sequence (P09619 whole entry): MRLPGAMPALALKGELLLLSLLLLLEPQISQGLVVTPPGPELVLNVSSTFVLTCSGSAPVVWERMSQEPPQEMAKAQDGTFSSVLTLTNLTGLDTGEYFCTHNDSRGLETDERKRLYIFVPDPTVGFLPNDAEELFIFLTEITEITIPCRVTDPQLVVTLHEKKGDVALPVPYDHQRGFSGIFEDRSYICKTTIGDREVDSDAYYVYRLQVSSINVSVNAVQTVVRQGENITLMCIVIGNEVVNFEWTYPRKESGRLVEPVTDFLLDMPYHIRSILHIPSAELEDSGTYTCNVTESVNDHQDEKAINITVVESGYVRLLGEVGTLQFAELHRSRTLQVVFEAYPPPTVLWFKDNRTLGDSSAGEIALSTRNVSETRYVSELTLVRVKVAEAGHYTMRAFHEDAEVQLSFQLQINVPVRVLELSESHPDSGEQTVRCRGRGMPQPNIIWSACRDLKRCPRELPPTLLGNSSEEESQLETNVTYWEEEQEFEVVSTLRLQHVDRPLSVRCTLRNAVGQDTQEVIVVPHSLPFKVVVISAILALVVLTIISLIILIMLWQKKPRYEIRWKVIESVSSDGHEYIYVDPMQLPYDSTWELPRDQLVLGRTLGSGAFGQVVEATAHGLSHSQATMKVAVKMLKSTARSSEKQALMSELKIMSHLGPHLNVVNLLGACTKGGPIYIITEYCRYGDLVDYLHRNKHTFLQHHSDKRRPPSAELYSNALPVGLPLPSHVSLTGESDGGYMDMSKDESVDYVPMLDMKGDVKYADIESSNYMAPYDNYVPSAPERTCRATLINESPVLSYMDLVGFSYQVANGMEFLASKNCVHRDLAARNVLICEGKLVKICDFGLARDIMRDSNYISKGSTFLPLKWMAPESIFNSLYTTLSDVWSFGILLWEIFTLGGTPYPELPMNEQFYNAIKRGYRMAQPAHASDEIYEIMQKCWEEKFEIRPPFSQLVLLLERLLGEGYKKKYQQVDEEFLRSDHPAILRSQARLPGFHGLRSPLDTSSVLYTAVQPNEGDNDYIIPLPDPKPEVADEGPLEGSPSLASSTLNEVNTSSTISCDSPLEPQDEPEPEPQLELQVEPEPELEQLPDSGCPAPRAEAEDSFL
pIC50: −log10 of the molar value.
Property Measured: pIC50

Q) Recorded pIC50 of COC[C@@H](C)Nc1cc(NC(=O)N2CCCc3cc(CN4CCCCOC4=O)c(C=O)nc32)ncc1C#N , please.
A) < 5.00

###

Assay Target: Tyrosine-protein kinase JAK3 (Homo sapiens, UniProt P52333)
Sequence (P52333 whole entry): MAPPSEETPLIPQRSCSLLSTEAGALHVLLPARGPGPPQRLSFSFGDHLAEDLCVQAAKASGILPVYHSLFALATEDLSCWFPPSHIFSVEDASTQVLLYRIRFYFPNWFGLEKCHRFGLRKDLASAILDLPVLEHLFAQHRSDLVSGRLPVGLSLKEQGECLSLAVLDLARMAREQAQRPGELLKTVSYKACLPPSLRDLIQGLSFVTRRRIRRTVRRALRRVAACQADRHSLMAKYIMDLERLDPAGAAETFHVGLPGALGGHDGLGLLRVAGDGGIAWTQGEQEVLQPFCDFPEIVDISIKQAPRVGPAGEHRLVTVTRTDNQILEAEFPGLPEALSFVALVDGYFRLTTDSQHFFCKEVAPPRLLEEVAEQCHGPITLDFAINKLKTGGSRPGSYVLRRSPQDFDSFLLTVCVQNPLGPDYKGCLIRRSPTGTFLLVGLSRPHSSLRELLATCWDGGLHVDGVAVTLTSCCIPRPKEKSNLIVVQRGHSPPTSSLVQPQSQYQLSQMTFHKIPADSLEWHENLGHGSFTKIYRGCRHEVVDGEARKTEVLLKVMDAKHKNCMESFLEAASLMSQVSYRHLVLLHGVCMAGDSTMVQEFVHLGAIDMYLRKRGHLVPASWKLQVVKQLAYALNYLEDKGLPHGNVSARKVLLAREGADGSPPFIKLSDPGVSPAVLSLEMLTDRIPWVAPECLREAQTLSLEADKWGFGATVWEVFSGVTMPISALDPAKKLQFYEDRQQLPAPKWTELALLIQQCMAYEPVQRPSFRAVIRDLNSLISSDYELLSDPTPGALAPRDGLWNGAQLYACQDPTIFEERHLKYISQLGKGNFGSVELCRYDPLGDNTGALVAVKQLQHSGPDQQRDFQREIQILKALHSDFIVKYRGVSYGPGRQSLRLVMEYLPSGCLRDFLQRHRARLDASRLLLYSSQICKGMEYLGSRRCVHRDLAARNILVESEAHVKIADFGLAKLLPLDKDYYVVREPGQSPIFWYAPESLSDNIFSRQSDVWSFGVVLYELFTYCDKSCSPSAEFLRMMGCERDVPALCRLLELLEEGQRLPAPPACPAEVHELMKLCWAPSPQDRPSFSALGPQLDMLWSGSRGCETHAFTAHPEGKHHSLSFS
Property Measured: IC50

Q) // query IC50 value for entry COC[C@@H](C)Nc1cc(NC(=O)N2CCCc3cc(CN4CCCCOC4=O)c(C=O)nc32)ncc1C#N
A) > 10 µM
